Reported IC50 for target or system Palmitoyl-protein thioesterase ABHD10, mitochondrial (Homo sapiens, UniProt Q9NUJ1), by entry.
Numbers only, in µM.

input_smiles=COc1ccc([C@@]23Oc4cc(OC)cc(OC)c4[C@]2(O)[C@@H]2OC(=O)[C@@H]2[C@H]3c2ccccc2)cc1 result=0.1

Kindly review the next compound as well.
// IC50 value for `CC[C@@]1(c2cccc(C)c2)C(=O)N(C(=O)OC)N1C(=O)OC` : 0.21

----------
# target-of-assay: Membrane-bound ghrelin O-acyltransferase MBOAT4 (Mus musculus)
# Sequence (P0C7A3 whole entry): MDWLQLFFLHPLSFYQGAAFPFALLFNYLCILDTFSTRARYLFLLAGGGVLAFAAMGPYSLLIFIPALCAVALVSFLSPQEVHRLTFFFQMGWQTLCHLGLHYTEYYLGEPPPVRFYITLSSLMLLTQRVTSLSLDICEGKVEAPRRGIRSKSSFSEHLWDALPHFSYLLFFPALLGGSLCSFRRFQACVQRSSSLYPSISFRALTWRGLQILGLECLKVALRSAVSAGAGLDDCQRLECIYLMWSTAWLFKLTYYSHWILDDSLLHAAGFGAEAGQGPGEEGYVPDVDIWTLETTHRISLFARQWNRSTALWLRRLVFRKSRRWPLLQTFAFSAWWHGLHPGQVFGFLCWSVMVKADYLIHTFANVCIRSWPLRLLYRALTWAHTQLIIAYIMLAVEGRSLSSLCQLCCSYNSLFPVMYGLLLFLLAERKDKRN
Kindly state IC50 for each of the entries shown.
Answers are plain numbers, in µM.

compound="CCCCCCN(C(C)=O)C(C(=O)NCc1ccccc1)c1ccc2cc(O)ccc2c1 (configuration not stated)" unit_label=µM result=7.54

Kindly review the next compound as well.
// IC50 value for CCCCCCCCN(C(C)=O)C(C(=O)NCc1ccccc1)c1ccc2cc(O)ccc2c1 (configuration not stated) : 13.1

----------
# target-of-assay: Palmitoyltransferase ZDHHC7 (Homo sapiens, UniProt Q9NXF8)
# Sequence (Q9NXF8 whole entry): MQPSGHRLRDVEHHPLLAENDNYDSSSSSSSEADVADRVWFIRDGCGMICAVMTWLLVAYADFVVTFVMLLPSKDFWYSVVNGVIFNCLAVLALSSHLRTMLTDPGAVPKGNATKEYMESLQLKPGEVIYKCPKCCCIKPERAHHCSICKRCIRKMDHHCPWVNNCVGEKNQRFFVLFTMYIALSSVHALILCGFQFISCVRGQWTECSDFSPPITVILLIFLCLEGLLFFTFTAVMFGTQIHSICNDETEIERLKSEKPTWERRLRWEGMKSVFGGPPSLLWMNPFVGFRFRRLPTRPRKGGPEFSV
# procedure-text: Inhibition of ZDHHC7 (unknown origin)
Kindly state IC50 for each of the entries shown.
Remember to quote the unit after the number.

molecule="CCCCCCCCCCCCCCC(Br)C(=O)OC (configuration not stated)" test_readout=IC50 result="38 µM"

Kindly review the next molecule as well.
Here CCCCCCCCCCCCCCC(Br)C(=O)SCCNC(C)=O (configuration not stated) was tested on Palmitoyltransferase ZDHHC7 (Homo sapiens, UniProt Q9NXF8), and its IC50 came to 4.4 µM

----------
# target-of-assay: UniProt P06239
# Sequence (P06239 whole entry): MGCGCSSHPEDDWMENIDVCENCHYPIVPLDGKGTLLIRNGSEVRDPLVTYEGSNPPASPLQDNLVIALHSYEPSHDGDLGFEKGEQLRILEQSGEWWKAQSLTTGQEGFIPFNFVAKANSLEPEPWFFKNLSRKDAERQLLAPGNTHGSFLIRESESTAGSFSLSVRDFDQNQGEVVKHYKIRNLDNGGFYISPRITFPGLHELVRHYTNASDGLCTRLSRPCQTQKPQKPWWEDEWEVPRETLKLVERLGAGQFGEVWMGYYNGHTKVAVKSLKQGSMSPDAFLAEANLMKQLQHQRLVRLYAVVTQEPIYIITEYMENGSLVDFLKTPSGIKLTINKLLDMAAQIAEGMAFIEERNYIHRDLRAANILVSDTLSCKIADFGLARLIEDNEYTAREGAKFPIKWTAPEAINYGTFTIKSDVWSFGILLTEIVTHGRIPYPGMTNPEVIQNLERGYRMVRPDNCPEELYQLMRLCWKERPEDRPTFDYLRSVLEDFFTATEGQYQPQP
# procedure-text: Inhibition of N-terminal human recombinant Lck expressed in baculovirus infected in Sf9 cells
test-readout: pIC50
Give bare numbers, as −log10 of the molar value.

// pIC50 value for CCCCCCCCCCCCCCC(Br)C(=O)O (stereo unspecified) : 5.00
